TGI listing for selected compounds.
system: OVCAR-8 ovarian; experiment: NCI tumour cell line growth inhibition, 48 h

{"columns": ["compound", "relation sign", "TGI / µM"],
 "data": [
  ["O=C1N[C@@H]2c3c(Br)sc(Br)c3C(=O)[C@@H]2N1", "=", 10.5],
  ["O=C(Nc1ccc(F)cc1)c1cc2ccc(O)cc2oc1=Nc1ccccc1F", "=", 36.7],
  ["CC(=O)/C=C/C1=C(c2ccsc2)c2ccccc2CC1", "=", 39.3],
  ["Cc1cc(=O)[nH]c(CNC(=O)Cc2ccccc2)n1", ">", 100],
  ["CCOC(=O)c1c(N2CCOCC2)[nH]c(=O)c(C(c2ccc(Cl)c([N+](=O)[O-])c2)c2c(O)c(C(=O)OCC)c(N3CCOCC3)[nH]c2=O)c1O", "=", 37],
  ["CC12OC3CC(O1)C1(C=O)C4CCC5(C)C(c6ccc(=O)oc6)CCC5(O)C4CCC1(C3)O2 (stereo not given)", "=", 1.2],
  ["CCOc1cc(NC(C)=O)ccc1C(=O)NN1C(=O)CSC1c1ccc(O)c(OC)c1 (stereo not given)", ">", 100],
  ["Cc1cc(=O)oc2c(CNC(C(=O)O)C(C)O)c(O)ccc12 (stereo not given)", ">", 100],
  ["COc1ccc(-n2cc(-c3ccc(OC)c(OC)c3)nc2SCc2ccccc2)cc1Cl", ">", 100],
  ["Cc1cc(C)c2c(c1)C(=O)C1(C2)Cc2c(ccc(C)c2C)C1=O (stereo not given)", ">", 100]
]}
